- TESTED_SYSTEM: pre-pro-insulin glargine
EXPERIMENTAL_ENDPOINT: Yield

>  <PROTEIN>
trypsin variant SEQ ID NO: 36 (protein) IVGGYTCAANSIPYQVSLNSGSHRCGGSLINSQWVVSAAHCYKSRIQVRLGEHNIDVLEGNEQFINAAKIITHPNFNGNTLDNDIMLIKLSSPATLNSRVATVSLPRSCAAAGTECLISGWGNTKSSGSSMPSLLQCLKAPVLSDSSCKSSYPGQITGNMICVGFLEGGKDACQGDSGGPVVCNGQLQGIVSSGYGCAQKNKPGVYTKVCNYVNWIQQTIAAN

>  <EXPERIMENTAL_ENDPOINT>
Yield

>  <ASSAY_VALUE>
> 90%

$$$$
>  <PROTEIN>
porcine trypsin variant S172A (SEQ ID NO: 2) (protein) IVGGYTCAANSIPYQVSLNSGSHFCGGSLINSQWVVSAAHCYKSRIQVRLGEHNIDVLEGNEQFINAAKIITHPNFNGNTLDNDIMLIKLSSPATLNSRVATVSLPRSCAAAGTECLISGWGNTKSSGSSYPSLLQCLKAPVLSDSSCKSSYPGQITGNMICVGFLEGGKDACQGDSGGPVVCNGQLQGIVSWGYGCAQKNKPGVYTKVCNYVNWIQQTIAAN

>  <EXPERIMENTAL_ENDPOINT>
Yield

>  <ASSAY_VALUE>
65%

$$$$
>  <PROTEIN>
trypsin variant SEQ ID NO: 88 (protein) IVGGYTCAANSIPYQVSLNSGSHRCGGSLINSQWVVSAAHCYKPRIQVRLGEHNIHVLEGNEQFINAAKIITHPNFNPNTLDNDIMLIKLSSPATLNSHVATVSLPTSCAAAGTECLISGWGNTSSSGSSMPSLLQCLKAPVLSDSSCKSSYPGQITGNMICVGFLEGGKDSCQGDSGGPVVCNGQLQGIVSSGYGCAQKNKPGVYTKVCNYVNWIQQTIAAN

>  <EXPERIMENTAL_ENDPOINT>
Yield

>  <ASSAY_VALUE>
> 90%

$$$$
